experiment: Clearance in Beagle dog at 0.5 mg/kg, po; format: ADME, organism-based, Canis lupus familiaris; conditions: in vivo
Measured Quantity: CL/F
Dear colleague, please send the value followed by its unit.

stdin: Recorded CL/F of CC(C)[C@H](NC(=O)C(C)(F)F)[C@H](Oc1ccc2c(cnn2-c2ccc(=O)n(C)c2)c1)c1ccccc1 [MIZACORAT] , please.
stdout: 3.2 mL/min/kg

###

target: Glucocorticoid receptor (Homo sapiens); experiment: Displacement of fluormone RED from human full length glucocorticoid receptor after 4 hrs by fluorescence polarization assay
Sequence (P04150 whole entry): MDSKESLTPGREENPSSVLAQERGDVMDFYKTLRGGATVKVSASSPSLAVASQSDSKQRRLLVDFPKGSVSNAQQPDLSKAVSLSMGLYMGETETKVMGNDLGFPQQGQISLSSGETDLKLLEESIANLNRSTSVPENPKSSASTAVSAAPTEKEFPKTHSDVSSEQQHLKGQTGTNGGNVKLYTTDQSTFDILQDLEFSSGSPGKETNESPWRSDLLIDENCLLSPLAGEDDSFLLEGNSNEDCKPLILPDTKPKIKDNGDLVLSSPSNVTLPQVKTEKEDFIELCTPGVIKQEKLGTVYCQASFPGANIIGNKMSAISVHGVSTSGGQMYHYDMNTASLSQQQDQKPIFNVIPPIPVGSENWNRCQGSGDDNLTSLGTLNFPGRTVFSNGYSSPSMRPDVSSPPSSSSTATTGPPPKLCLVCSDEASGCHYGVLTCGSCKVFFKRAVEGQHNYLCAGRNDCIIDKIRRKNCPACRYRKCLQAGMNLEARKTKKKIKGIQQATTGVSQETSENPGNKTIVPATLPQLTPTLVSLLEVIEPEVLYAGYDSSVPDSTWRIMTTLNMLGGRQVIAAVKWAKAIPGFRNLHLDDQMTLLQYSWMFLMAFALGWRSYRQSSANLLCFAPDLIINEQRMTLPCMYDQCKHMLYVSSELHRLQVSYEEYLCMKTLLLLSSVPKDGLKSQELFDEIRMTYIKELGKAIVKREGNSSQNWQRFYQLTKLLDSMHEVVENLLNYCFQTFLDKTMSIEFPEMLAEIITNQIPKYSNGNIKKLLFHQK
Measured Quantity: IC50 (nM)
The figure you give is taken to be in nM; do not add the unit.

stdin: Field: IC50 (Glucocorticoid receptor (Homo sapiens)). Entry: CC(C)[C@H](NC(=O)C(C)(F)F)[C@H](Oc1ccc2c(cnn2-c2ccc(=O)n(C)c2)c1)c1cccc(Cl)c1
stdout: 2.6

stdin: Hi! What's the reported IC50 for CC(C)(C)OC[C@H](NC(=O)C(F)(F)F)[C@H](Oc1ccc(C#N)cc1Br)c1cnc(C2CC2)nc1 on Glucocorticoid receptor (Homo sapiens)?
stdout: 160

stdin: Given the entry COc1ccc([C@@H](Oc2ccc(C#N)cc2Cl)[C@H](C)NC(=O)C(C)(F)F)cn1 , what IC50 was observed with Glucocorticoid receptor (Homo sapiens)?
stdout: 7.1

###

experiment: Aqueous solubility of the compound; type: physicochemical; conditions: aqueous; read-out: solubility
Classes (solubility): class 1: < 10 µM; class 2: ≥ 10 µM and < 100 µM; class 3: ≥ 100 µM

stdin: Class? Entry: COc1ccc([C@@H](Oc2ccc3c(cnn3-c3ccc(F)cc3)c2)[C@H](COC(C)(C)C)NC(=O)C(C)(F)F)cn1
stdout: class 1

stdin: Band for the recorded solubility of CC(C)[C@H](NC(=O)C(C)(F)F)[C@H](Oc1ccc2c(cnn2-c2cnc(=O)n(C)c2)c1)c1ccccc1 ?
stdout: class 1

stdin: Class? Entry: CC(C)[C@H](NC(=O)C(C)(F)F)[C@H](Oc1ccc2c(cnn2-c2ccc(F)cc2)c1)c1ccccc1
stdout: class 1

stdin: Category of Cn1cc(-n2ncc3cc(O[C@H](c4ccccc4)[C@H](CC4CC4)NC(=O)C(C)(F)F)ccc32)ccc1=O , please.
stdout: class 2

stdin: Hi, small favor: classify COc1ccc([C@@H](Oc2ccc3c(cnn3-c3ccc(F)cc3)c2)[C@H](Cc2ccccc2)NC(=O)C(C)(F)F)cn1 by its solubility when you get a moment.
stdout: class 1

stdin: Into which bin does this molecule go? C[C@]12C=CC(=O)C=C1CC[C@@H]1[C@@H]2[C@@H](O)C[C@@]2(C)[C@H]1CC[C@]2(O)C(=O)CO
stdout: class 3

stdin: # bin label for COc1ccc([C@@H](Oc2ccc3c(cnn3-c3ccc(F)cc3)c2)[C@@H](NC(=O)C(C)(F)F)C(C)C)cn1
stdout: class 1

stdin: Class (by measured solubility) for C[C@H](NC(=O)C(C)(F)F)[C@H](Oc1ccc(C#N)cc1Cl)c1cnc(C2CC2)nc1
stdout: class 3

stdin: Form: Item = CC(C)[C@H](NC(=O)C(F)(F)F)[C@H](Oc1ccc2c(cnn2-c2ccc(=O)n(C)c2)c1)c1cccc(Cl)c1 ; Class = ?
stdout: class 1

stdin: // bin(item) where item = CC(C)[C@H](NC(=O)C(C)(F)F)[C@H](Oc1ccc2c(cnn2-c2ccc(=O)n(C)c2)c1)c1cc(F)cc(F)c1
stdout: class 2

stdin: Class? Entry: COc1ccc([C@@H](Oc2ccc(C#N)cc2Cl)[C@H](C)NC(=O)C(C)(F)F)cn1
stdout: class 2

stdin: Returns: class label. Input: CC(C)[C@H](NC(=O)C(C)(F)F)[C@H](Oc1ccc2c(cnn2-c2ccns2)c1)c1ccccc1
stdout: class 1

stdin: For the record CC(C)[C@H](NC(=O)C(C)(F)F)[C@H](Oc1ccc2c(cnn2-c2cscn2)c1)c1ccccc1 , report the class its solubility corresponds to.
stdout: class 1

###

target: Glucocorticoid receptor (Homo sapiens); assay: Displacement of fluormone RED from human full length glucocorticoid receptor after 4 hrs by fluorescence polarization assay
Measured Quantity: IC50

stdin: Please give the measured IC50 for this compound: CC(C)[C@H](NC(=O)C(C)(F)F)[C@H](Oc1ccc2c(cnn2-c2ccc(F)cc2)c1)c1ccccc1
stdout: < 14 nM

stdin: Reported IC50 for CC(C)[C@H](NC(=O)C(F)(F)F)[C@H](Oc1ccc2c(cnn2-c2ccc(=O)n(C)c2)c1)c1cccc(Cl)c1 : what is it?
stdout: < 3 nM

stdin: Fill blank: measured IC50 of the compound CC(C)[C@H](NC(=O)C(C)(F)F)[C@H](Oc1ccc2c(cnn2-c2cc(F)c(=O)n(C)c2)c1)c1ccccc1 is ____.
stdout: < 3.2 nM

stdin: Reported IC50 for COc1ccc([C@@H](Oc2ccc(C#N)c(Cl)c2)[C@H](C)NC(=O)C(C)(F)F)cn1 : what is it?
stdout: < 4 nM

stdin: Tell me the measured IC50 of COc1ccc([C@@H](Oc2ccc(C#N)cc2)[C@H](C)NC(=O)C(C)(F)F)cn1 , please.
stdout: < 6.8 nM

stdin: Entry under review: C[C@H](NC(=O)C(C)(F)F)[C@H](Oc1ccc(C#N)cc1Cl)c1cnc(C2CC2)nc1 . Reported IC50?
stdout: < 4.1 nM

stdin: Please report the recorded IC50 for C[C@H](NC(=O)C(F)(F)F)[C@H](Oc1ccc(C#N)cc1Br)c1cnc(C2CC2)nc1 .
stdout: 2.4 nM

stdin: Item under review: Cc1nnc(C(=O)N[C@@H](C(C)O)[C@H](Oc2ccc3c(cnn3-c3ccc(F)cc3)c2)c2cc(F)cc(F)c2)o1 (single isomer, unassigned) . Reported IC50?
stdout: 16 nM

stdin: If you can, please state the reported IC50 value of CC(C)[C@H](NC(=O)C(C)(F)F)[C@H](Oc1ccc2c(cnn2-c2cscn2)c1)c1ccccc1 .
stdout: 52 nM

###

Field: IC50. Provide a value for each of the compounds that follow.
Only the number, expressed in nM, is required.

stdin: Please tell me: IC50 of CC(C)[C@H](NC(=O)C(C)(F)F)[C@H](Oc1ccc2c(cnn2-c2ccns2)c1)c1ccccc1 , system UniProt:P04150?
stdout: 39

stdin: Form entry - test system: UniProt:P04150; read-out: IC50; compound: C[C@H](NC(=O)C(C)(F)F)[C@H](Oc1ccc2c(cnn2-c2ccc(=O)n(C)c2)c1)c1ccccc1
stdout: 1.6

stdin: // map CC[C@H](NC(=O)C(F)(F)F)[C@H](Oc1ccc(C#N)cc1Br)c1cnc(C2CC2)nc1 to recorded IC50 (system: UniProt:P04150)
stdout: 9.6

stdin: Give recorded IC50 with UniProt:P04150 for the following compound: CC(C)[C@H](NC(=O)C(C)(F)F)[C@H](Oc1ccc2c(cnn2-c2cccn(C)c2=O)c1)c1ccccc1
stdout: 11

###

assay: Aqueous solubility of the compound; type: physicochemical; conditions: aqueous; read-out: solubility
Measured Quantity: solubility (µM)
Unit µM implied. Number only.

stdin: Fill in: solubility of COc1ccc([C@@H](Oc2ccc(C#N)c(Cl)c2)[C@H](C)NC(=O)C(C)(F)F)cn1 is ___
stdout: 100

stdin: // returns reported solubility for input C[C@H](NC(=O)C(F)(F)F)[C@H](Oc1ccc(C#N)cc1Br)c1cnc(C2CC2)nc1
stdout: 97

stdin: Any idea what its solubility is? The compound is CC(C)[C@H](NC(=O)C(C)(F)F)[C@H](Oc1ccc2c(cnn2-c2ccc(=O)n(C)c2)c1)c1cccc(Cl)c1
stdout: 10
